testSystem: T1, GFP-RIIα D/D (mouse, UniProt P12367 1-46)
T1 construct: range 1-46; His tag cleaved with thrombin; also called GFP-RII D/D; D/D domain of mouse RIIα (residues 1-46) fused to GFP; not shown: green fluorescent protein (GFP)
T1 sequence (P12367 1-46): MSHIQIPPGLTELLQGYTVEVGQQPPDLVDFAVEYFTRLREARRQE
protocolSummary: SPOT peptide array, anti-GFP detection
Ends that are not written are not given here.
measure: binding result

Some solved cases for reference:
VQGNTDEAQEELAWKIAKM (also: cellulose-bound) [SEQ ID NO:90 peptide]	no binding
VQGNTDEAQEELAWKIAKMIVSDIM (also: cellulose-bound) [SEQ ID NO:84 peptide]	binds
VQGNTDEAQE (also: cellulose-bound) [SEQ ID NO:99 peptide]	no binding
VQGNTDEAQEELAWKIAKMIVSDIMQ (also: cellulose-bound) [SEQ ID NO:83 peptide]	binds
VQGNTDEAQEELAWKIAKMIV (also: cellulose-bound) [SEQ ID NO:88 peptide]	binds
VQGNTDEAQEELAWKI (also: cellulose-bound) [SEQ ID NO:93 peptide]	no binding

For every record below, what is its binding result?
1. VQGNTDEAQEELAWKIAKMIVSD (also: cellulose-bound) [SEQ ID NO:86 peptide]
2. VQGNTDEAQEELAWKIAK (also: cellulose-bound) [SEQ ID NO:91 peptide]

Response:
["binds", "no binding"]

For every record below, what is its binding result?
1. VQGNTDEAQEELAWKIAKMIVSDI (also: cellulose-bound) [SEQ ID NO:85 peptide]
2. VQGNTDEAQEELA (also: cellulose-bound) [SEQ ID NO:96 peptide]
3. VQGNTDEAQEEL (also: cellulose-bound) [SEQ ID NO:97 peptide]

Response:
1. binds
2. no binding
3. no binding

For every record below, what is its binding result?
1. VQGNTDEAQEELAWKIAKMIVS (also: cellulose-bound) [SEQ ID NO:87 peptide]
2. VQGNTDEAQEELAWK (also: cellulose-bound) [SEQ ID NO:94 peptide]

Response:
1. binds
2. no binding

The values you see were collected from patent US20030232420A1.
